B1: scFv; the commonest letter at each place (parent)
chain 1: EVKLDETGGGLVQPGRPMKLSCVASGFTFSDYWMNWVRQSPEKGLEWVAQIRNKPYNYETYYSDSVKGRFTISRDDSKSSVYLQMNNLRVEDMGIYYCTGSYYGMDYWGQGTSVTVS
chain 2: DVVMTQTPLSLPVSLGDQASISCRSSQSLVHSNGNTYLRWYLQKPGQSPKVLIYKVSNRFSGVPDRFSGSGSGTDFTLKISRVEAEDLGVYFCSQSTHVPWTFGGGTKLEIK

Variants of: B1
test_protocol: Kd (Tite-Seq)
assay_setup: with fluorescein; format: scFv 4-4-20, heavy + light
quantity_measured: Kd

variant_spec: chain 1 D31M Y32S
Kd: ≥ 10 µM

GET /values?readout=Kd&item= chain 1 D31C W33G
≥ 10 µM

State the recorded Kd for this entry: chain 1 G100V Y102P M105N
≥ 10 µM
